Range-based classes on measured log10 vapour pressure (mmHg): bin A = under -5, bin B = from -5 up to -0.6, bin C = -0.6 and over

Use these answered entries as a reference point.
Compound | Answer label
CCCCOC(=O)c1ccccc1 | bin B
O=C=Nc1cccc2c(N=C=O)cccc12 | bin B

## Input Which category fits this record: c1ccc(Nc2ccc(Nc3ccccc3)cc2)cc1
## Output bin A

## Input Which category fits this record: Cc1cccc2sc3nncn3c12
## Output bin A

## Input Which category fits this record: CCNc1nc(NC(C)(C)C)nc(SC)n1
## Output bin A

## Input Which category fits this record: CC1CNC(C)CN1 (stereo not drawn)
## Output bin C
